Target: SGK3 (Homo sapiens, UniProt Q96BR1)
Sequence (Q96BR1 whole entry): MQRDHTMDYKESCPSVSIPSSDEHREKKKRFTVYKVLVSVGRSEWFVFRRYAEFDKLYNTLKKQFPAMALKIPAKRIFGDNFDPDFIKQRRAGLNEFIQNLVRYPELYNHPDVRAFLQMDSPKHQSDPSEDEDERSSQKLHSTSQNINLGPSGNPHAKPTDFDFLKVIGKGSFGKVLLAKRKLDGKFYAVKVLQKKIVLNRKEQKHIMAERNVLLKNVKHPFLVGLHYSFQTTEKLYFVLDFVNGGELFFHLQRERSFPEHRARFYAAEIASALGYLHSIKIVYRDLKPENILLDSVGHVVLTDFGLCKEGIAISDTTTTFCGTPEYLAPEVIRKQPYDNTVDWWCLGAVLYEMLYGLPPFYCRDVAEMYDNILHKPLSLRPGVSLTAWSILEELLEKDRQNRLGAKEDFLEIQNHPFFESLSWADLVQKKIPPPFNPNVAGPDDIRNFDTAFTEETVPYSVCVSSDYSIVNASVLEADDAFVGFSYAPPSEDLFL
Assay: SGK3 degradation in HEK293 cells, immunoblot
Assay type: cell-based
Set-up: reduced endogenous SGK isoform or S6K1 expression when administered to HEK293 cells for 48 h; endogenous in cells; host or cells: HEK293
Settings: HEK293, 48 h, 0.01 μM, Figure 2
experimental.readout: remaining activity at 0.01 µM (%)

q: For the record COc1ccc(Cl)c(S(=O)(=O)Nc2ccc(-c3nc(OC[C@H]4CN(CCCCCCOCCOCCOCCOCC(=O)N[C@H](C(=O)N5C[C@H](O)C[C@H]5C(=O)NCc5ccc(-c6scnc6C)cc5)C(C)(C)C)CCO4)c4c(C)n[nH]c4n3)cc2)c1 [DAT11] , what value of remaining activity at 0.01 µM is listed for SGK3 (Homo sapiens, UniProt Q96BR1)?
a: 97

q: For the record Cc1ccc(F)c(S(=O)(=O)Nc2ccc(-c3nc(OC[C@H]4CN(CCCCCCOCCOCCOCCOCC(=O)N[C@H](C(=O)N5C[C@H](O)C[C@H]5C(=O)NCc5ccc(-c6scnc6C)cc5)C(C)(C)C)CCO4)c4cn[nH]c4n3)cc2)c1 [DAT9] , what value of remaining activity at 0.01 µM is listed for SGK3 (Homo sapiens, UniProt Q96BR1)?
a: 71

q: For the record Cc1ccc(F)c(S(=O)(=O)Nc2ccc(-c3nc(OC[C@H]4CN(CCOCCOCCOCCOCCOCC(=O)N[C@H](C(=O)N5C[C@H](O)C[C@H]5C(=O)NCc5ccc(-c6scnc6C)cc5)C(C)(C)C)CCO4)c4cn[nH]c4n3)cc2)c1 [DAT7] , what value of remaining activity at 0.01 µM is listed for SGK3 (Homo sapiens, UniProt Q96BR1)?
a: 80

q: For the record Cc1ccc(F)c(S(=O)(=O)Nc2ccc(-c3nc(OC[C@H]4CN(CCOCCOCC(=O)N[C@H](C(=O)N5C[C@H](O)C[C@H]5C(=O)NCc5ccc(-c6scnc6C)cc5)C(C)(C)C)CCO4)c4cn[nH]c4n3)cc2)c1 [DAT5] , what value of remaining activity at 0.01 µM is listed for SGK3 (Homo sapiens, UniProt Q96BR1)?
a: 82

q: For the record Cc1ccc(F)c(S(=O)(=O)Nc2ccc(-c3nc(OC[C@H]4CN(CCOCCOCCOCCOCC(=O)N[C@H](C(=O)N5C[C@H](O)C[C@H]5C(=O)NCc5ccc(-c6scnc6C)cc5)C(C)(C)C)CCO4)c4cn[nH]c4n3)cc2)c1 [DAT6] , what value of remaining activity at 0.01 µM is listed for SGK3 (Homo sapiens, UniProt Q96BR1)?
a: 90

q: For the record Cc1ccc(F)c(S(=O)(=O)Nc2ccc(-c3nc(OC[C@H]4CN(CCCCCCOCCCCCCOCC(=O)N[C@H](C(=O)N5C[C@H](O)C[C@H]5C(=O)NCc5ccc(-c6scnc6C)cc5)C(C)(C)C)CCO4)c4cn[nH]c4n3)cc2)c1 [DAT10] , what value of remaining activity at 0.01 µM is listed for SGK3 (Homo sapiens, UniProt Q96BR1)?
a: 76

q: For the record Cc1ccc(F)c(S(=O)(=O)Nc2ccc(-c3nc(OC[C@H]4CN(CCOCCOCCOCC(=O)N[C@H](C(=O)N5C[C@H](O)C[C@H]5C(=O)NCc5ccc(-c6scnc6C)cc5)C(C)(C)C)CCO4)c4cn[nH]c4n3)cc2)c1 [DAT1] , what value of remaining activity at 0.01 µM is listed for SGK3 (Homo sapiens, UniProt Q96BR1)?
a: 82

q: For the record Cc1ccc(F)c(S(=O)(=O)Nc2ccc(-c3nc(OC[C@H]4CN(CCCCCCOCCOCCOCC(=O)N[C@H](C(=O)N5C[C@H](O)C[C@H]5C(=O)NCc5ccc(-c6scnc6C)cc5)C(C)(C)C)CCO4)c4cn[nH]c4n3)cc2)c1 [SGK3-PROTAC1] , what value of remaining activity at 0.01 µM is listed for SGK3 (Homo sapiens, UniProt Q96BR1)?
a: 107
